system-tested: HLA-B*15:42
assay-text: IEDB peptide-MHC binding, purified MHC/competitive/fluorescence; filed as Kd, often an IC50 or EC50 that approximates it; bounds were set here for any values at or beyond the usual limits of such assays
run-conditions: source organism: Mycobacterium tuberculosis C

residues	Kd
SARRRHLVF	≥ 5 µM
ALFDRPAFK	≥ 5 µM

###

system-tested: HLA-B*15:17
assay-text: IEDB peptide-MHC binding, purified MHC/direct/fluorescence; filed as Kd, often an IC50 or EC50 that approximates it; bounds were set here for any values at or beyond the usual limits of such assays
run-conditions: source organism: Bacillus anthracis
pKd: −log10 of the molar value.
measured-endpoint: pKd

residues	qualifier-operator	measured
MSDIFASEV	=	8.68
WFREDRSPV	≤	4.70

###

Listing of recorded log10 of Kd by entry.
system-tested: HLA-A*02:02
assay-text: IEDB peptide-MHC binding, purified MHC/competitive/radioactivity; filed as Kd, often an IC50 or EC50 that approximates it; bounds were set here for any values at or beyond the usual limits of such assays
run-conditions: source organism: SARS coronavirus Tor2
measured-endpoint: log10 of Kd (log10 of the value in nM)

residues	system-tested	measured
GLSDRVVFV	HLA-A*02:02	0.02
IVAALVFLI	HLA-A*02:02	-0.86
FLAFVVFLLV	HLA-A*02:02	0.37
AIMTRCLAV	HLA-A*02:02	1.71
LAFVVFLLV	HLA-A*02:02	2.66

###

system-tested: HLA-A*02:01
assay-text: IEDB peptide-MHC binding, purified MHC/competitive/radioactivity; filed as Kd, often an IC50 or EC50 that approximates it; bounds were set here for any values at or beyond the usual limits of such assays
run-conditions: source organism: Trypanosoma cruzi
# reported Kd; entries follow
measured-endpoint: Kd (µM)

residues	units-label	measured
LLGMWGIAAI	µM	0.0143
LVGLLSNAAS	µM	11.2

###

system-tested: HLA-A*02:06
assay-text: IEDB peptide-MHC binding, purified MHC/competitive/radioactivity; filed as Kd, often an IC50 or EC50 that approximates it; bounds were set here for any values at or beyond the usual limits of such assays
run-conditions: source organism: Dengue virus 4 Philippines/H241/1956
pKd: −log10 of the molar value.
This section presents sequences with their documented pKd values.

residues	pKd
NQILEENMEV	7.54
TMTLWYMWQV	7.13
MVIGMAMTTV	8.28
LVVVTTLCAI	7.04

###

system-tested: HLA-B*54:01
assay-text: IEDB peptide-MHC binding, purified MHC/competitive/radioactivity; filed as Kd, often an IC50 or EC50 that approximates it; bounds were set here for any values at or beyond the usual limits of such assays
run-conditions: source organism: Mammarenavirus machupoense
pKd: −log10 of the molar value.
measured-endpoint: pKd

residues	system-tested	measured-endpoint	measured
MLNNSLYYM	HLA-B*54:01	pKd	≤ 4.44

###

system-tested: HLA-B*54:01
assay-text: IEDB peptide-MHC binding, purified MHC/competitive/radioactivity; filed as Kd, often an IC50 or EC50 that approximates it; bounds were set here for any values at or beyond the usual limits of such assays
run-conditions: source organism: Mammarenavirus brazilense
pKd: −log10 of the molar value.

residues	pKd
LPTSIVVPI	7.75

###

system-tested: HLA-B*08:01
assay-text: IEDB peptide-MHC binding, purified MHC/direct/fluorescence; filed as Kd, often an IC50 or EC50 that approximates it; bounds were set here for any values at or beyond the usual limits of such assays
run-conditions: source organism: Vibrio vulnificus YJ016

residues	units-label	Kd
LLRRRPYPL	nM	3

###

system-tested: HLA-B*51:01
assay-text: IEDB peptide-MHC binding, purified MHC/competitive/fluorescence; filed as Kd, often an IC50 or EC50 that approximates it; bounds were set here for any values at or beyond the usual limits of such assays
run-conditions: source organism: Hantavirus HPR/02-73
pKd: −log10 of the molar value.
measured-endpoint: pKd

residues	measured
YILGFAIPI	≤ 4.70

###

system-tested: HLA-A*68:02
assay-text: IEDB peptide-MHC binding, purified MHC/direct/fluorescence; filed as Kd, often an IC50 or EC50 that approximates it; bounds were set here for any values at or beyond the usual limits of such assays
run-conditions: source organism: Cryptosporidium parvum Iowa II
Listing of entries alongside the reported Kd.

residues	Kd
ILTRLALFF	≥ 20 µM
DHIPIINTL	≥ 20 µM

###

system-tested: HLA-A*03:01
assay-text: IEDB peptide-MHC binding, purified MHC/direct/fluorescence; filed as Kd, often an IC50 or EC50 that approximates it; bounds were set here for any values at or beyond the usual limits of such assays
run-conditions: source organism: Mammarenavirus juninense
measured-endpoint: Kd (nM)

residues	measured
TLHFLTRGK	344

###

system-tested: HLA-A*26:01
assay-text: IEDB peptide-MHC binding, purified MHC/direct/fluorescence; filed as Kd, often an IC50 or EC50 that approximates it; bounds were set here for any values at or beyond the usual limits of such assays
run-conditions: source organism: Influenza A virus(A/swine/Henan/8/2004(H9N2))
pKd: −log10 of the molar value.

residues	system-tested	pKd
PAHKSQLVW	HLA-A*26:01	≤ 4.70

###

system-tested: HLA-A*69:01
assay-text: IEDB peptide-MHC binding, purified MHC/direct/fluorescence; filed as Kd, often an IC50 or EC50 that approximates it; bounds were set here for any values at or beyond the usual limits of such assays
run-conditions: source organism: Campylobacter jejuni
measured-endpoint: Kd

residues	measured-endpoint	measured
SFGAGTLAK	Kd	≥ 20 µM

###

system-tested: HLA-A*68:02
assay-text: IEDB peptide-MHC binding, purified MHC/direct/fluorescence; filed as Kd, often an IC50 or EC50 that approximates it; bounds were set here for any values at or beyond the usual limits of such assays
run-conditions: source organism: Aracatuba virus

residues	Kd
YKEPNSIIL	≥ 20 µM

###

system-tested: HLA-B*35:01
assay-text: IEDB peptide-MHC binding, purified MHC/direct/fluorescence; filed as Kd, often an IC50 or EC50 that approximates it; bounds were set here for any values at or beyond the usual limits of such assays
run-conditions: source organism: Vibrio parahaemolyticus
pKd: −log10 of the molar value.

residues	pKd
YPKCDLVEL	8.09

###

system-tested: HLA-B*15:17
assay-text: IEDB peptide-MHC binding, purified MHC/competitive/fluorescence; filed as Kd, often an IC50 or EC50 that approximates it; bounds were set here for any values at or beyond the usual limits of such assays
run-conditions: source organism: Entamoeba dispar SAW760

residues	Kd
STYQFSLMQ	≥ 20 µM

###

system-tested: HLA-A*03:01
assay-text: IEDB peptide-MHC binding, purified MHC/direct/fluorescence; filed as Kd, often an IC50 or EC50 that approximates it; bounds were set here for any values at or beyond the usual limits of such assays
run-conditions: source organism: Araucaria virus
measured-endpoint: Kd

residues	system-tested	measured-endpoint	measured
YILGFAIPI	HLA-A*03:01	Kd	≥ 20 µM

###

system-tested: HLA-A*11:01
assay-text: IEDB peptide-MHC binding, purified MHC/competitive/radioactivity; filed as Kd, often an IC50 or EC50 that approximates it; bounds were set here for any values at or beyond the usual limits of such assays
run-conditions: source organism: Dengue virus 2 Jamaica/1409/1983
Kd by entry:

residues	Kd [nM]
SQGAGWSLK	77.7
VSILASSLLK	26.2

###

system-tested: HLA-A*01:01
assay-text: IEDB peptide-MHC binding, purified MHC/competitive/radioactivity; filed as Kd, often an IC50 or EC50 that approximates it; bounds were set here for any values at or beyond the usual limits of such assays
run-conditions: source organism: Variola virus
pKd: −log10 of the molar value.

residues	system-tested	pKd
RYYDGNIYDL	HLA-A*01:01	5.58

###

system-tested: HLA-A*69:01
assay-text: IEDB peptide-MHC binding, purified MHC/competitive/fluorescence; filed as Kd, often an IC50 or EC50 that approximates it; bounds were set here for any values at or beyond the usual limits of such assays
run-conditions: source organism: Reston ebolavirus - Reston (1989)
measured-endpoint: Kd

residues	measured
QLSLRMLSL	≥ 20 µM

###

system-tested: HLA-B*18:01
assay-text: IEDB peptide-MHC binding, purified MHC/competitive/fluorescence; filed as Kd, often an IC50 or EC50 that approximates it; bounds were set here for any values at or beyond the usual limits of such assays
run-conditions: source organism: Hantavirus HPR/02-73
measured-endpoint: Kd

residues	system-tested	measured
YILGFAIPI	HLA-B*18:01	≥ 20 µM

###

system-tested: HLA-A*02:03
assay-text: IEDB peptide-MHC binding, purified MHC/competitive/fluorescence; filed as Kd, often an IC50 or EC50 that approximates it; bounds were set here for any values at or beyond the usual limits of such assays
run-conditions: source organism: Campylobacter jejuni subsp. jejuni NCTC 11168 = ATCC 700819
pKd: −log10 of the molar value.

residues	pKd
AELIDSFTW	≤ 4.70

###

Documented pKd across a set of sequences
system-tested: HLA-A*02:03
assay-text: IEDB peptide-MHC binding, purified MHC/direct/fluorescence; filed as Kd, often an IC50 or EC50 that approximates it; bounds were set here for any values at or beyond the usual limits of such assays
run-conditions: source organism: Cryptosporidium parvum Iowa II
pKd: −log10 of the molar value.

residues	pKd
DHIPIINTL	≤ 4.70
ILTRLALFF	≤ 4.70
